Assay: GHS categories as the set defines them, by LD50: 1 up to 5, 2 up to 50, 3 up to 300, 4 up to 2000, 5 above 2000 mg/kg
Details: rat; in vivo; po
Measure: GHS category
Could you keep your reply to the number by itself?

CC(C)=CCC(O)C1=CC(=O)c2c(O)ccc(O)c2C1=O (stereo unspecified)	4
O=C1c2ccccc2C2=Nc3cccc4cccc(c34)N12	5
C[Si](C)(CCCN)N1CCC[Si]1(C)C	4
Nc1c(I)c(C(=O)Cl)c(I)c(C(=O)Cl)c1I	5
O=C(O)[C@H](O)[C@H](O)[C@@H](O)[C@H](O)[C@H](O)CO	5

The compound listed as FC(F)(F)OC(Cl)C(F)(Cl)Cl (stereo unspecified) shows GHS category equal to 5

---

Experiment: GHS categories as the set defines them, by LD50: 1 up to 5, 2 up to 50, 3 up to 300, 4 up to 2000, 5 above 2000 mg/kg
Conditions: rat; in vivo; po
Measure: GHS category

# annotated cases, reported GHS category shown
CCOC(=O)c1cc(Br)ccc1OC(N)=O	5
CCCCCCCC/C=C\CCCCCCCC(=O)OCC(C)(C)COC(=O)CCCCCCC/C=C\CCCCCCCC	5
OCC1CN2CCN1CC2 (stereo unspecified)	5
CCCCCCCCCCCCCCCCCCCCO	5

The compound listed as CCOC(=O)C(Cl)(Cl)Cl shows GHS category equal to 5

The compound listed as CCCCCC1Nc2cc(C(F)(F)F)c(S(N)(=O)=O)cc2S(=O)(=O)N1 (stereo unspecified) shows GHS category equal to 5

The compound listed as OCCCOc1nn(-c2cccc(C(F)(F)F)c2)c2ncccc12 shows GHS category equal to 4

The compound listed as CCCCCCCSCCCCN1CCCCCC1=O shows GHS category equal to 5

The compound listed as COc1cc(CC2NCCc3cc(O)c(O)cc32)cc(OC)c1OC (stereo unspecified) shows GHS category equal to 5

The compound listed as CCOC(=O)C(SP(=S)(OC)OC)C(SP(=S)(OC)OC)C(=O)OCC (stereo unspecified) shows GHS category equal to 4

The compound listed as CC(=O)OCC(=O)[C@@]1(OC(C)=O)CC[C@H]2[C@@H]3C[C@@H](F)C4=CC(=O)C(Br)=C[C@]4(C)[C@@]3(F)[C@@H](O)C[C@@]21C shows GHS category equal to 5

---

Test: GHS categories as the set defines them, by LD50: 1 up to 5, 2 up to 50, 3 up to 300, 4 up to 2000, 5 above 2000 mg/kg
Details: rat; in vivo; po
Excerpt: […]The data set underlying the modeling effort for this project was initially compiled by NICEATM and U.S. EPA’s CCTE. Briefly, LD50 data were collected from rat acute oral systemic toxicity tests, including limit tests, ranges/confidence intervals, and discrete LD50 values. The full data set included 21,200 LD50 entries for 15,688 substances. […]
The entries below are paired with their reported GHS category.
Could you keep your reply to the number by itself?

CC(C)CCCCCCCCCCOCCCN	4
CC/C=C\CCOC(=O)C(C)C	5
N#CCCNCCCCCCNCCC#N	5
C=C1CC[C@@]23C[C@@H]1C(C)(C)[C@@H]2C(O)C[C@H]3C (some centres not stated)	5
CCCCCCCCC(C)C(C)CCCCCCCC (configuration not stated)	5

The compound listed as O=C1c2ccccc2C(c2ccc(O)cc2)(c2ccc(O)cc2)N1c1ccccc1 shows GHS category equal to 5

The compound listed as C=CCCCC(C)C shows GHS category equal to 5

The compound listed as CC(C)OC(=O)C=Cc1ccccc1 shows GHS category equal to 5

The compound listed as O=C(CCCN1CCC2(CC1)C(=O)NCN2c1ccccc1)c1ccc(F)cc1 shows GHS category equal to 4

The compound listed as COc1cc(/N=N/c2c(Br)cc([N+](=O)[O-])cc2[N+](=O)[O-])c(NC(C)=O)cc1N(CCOC(C)=O)CCOC(C)=O shows GHS category equal to 5

The compound listed as C/C(=C(\CCOC(=O)C(C)C)SS/C(CCOC(=O)C(C)C)=C(/C)N(C=O)Cc1cnc(C)nc1N)N(C=O)Cc1cnc(C)nc1N shows GHS category equal to 5

The compound listed as CC(C)S shows GHS category equal to 5
